Molecular target: SRC (Homo sapiens, UniProt P12931)
Sequence (P12931 whole entry): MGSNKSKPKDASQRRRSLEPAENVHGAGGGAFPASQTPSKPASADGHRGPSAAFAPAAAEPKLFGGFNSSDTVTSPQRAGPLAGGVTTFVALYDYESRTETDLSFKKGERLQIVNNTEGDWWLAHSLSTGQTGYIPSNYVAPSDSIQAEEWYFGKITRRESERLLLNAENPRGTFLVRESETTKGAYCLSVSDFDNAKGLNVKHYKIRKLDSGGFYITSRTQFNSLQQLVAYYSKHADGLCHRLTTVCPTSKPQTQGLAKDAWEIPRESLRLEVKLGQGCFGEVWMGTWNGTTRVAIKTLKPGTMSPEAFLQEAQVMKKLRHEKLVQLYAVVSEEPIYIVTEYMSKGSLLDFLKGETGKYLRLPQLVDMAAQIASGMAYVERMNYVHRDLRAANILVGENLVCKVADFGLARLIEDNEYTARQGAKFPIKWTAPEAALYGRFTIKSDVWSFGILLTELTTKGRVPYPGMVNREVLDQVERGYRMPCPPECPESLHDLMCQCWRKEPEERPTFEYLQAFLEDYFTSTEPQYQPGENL
Test: Radioisotope filter activity assay, recombinant kinase
Type: biochemical
Design: purchased Reaction Biology Corporation
Conditions: 10 point dose response, 10 µM ATP
MEASURE NAME: IC50 (nM)
Express your answer in nM, writing the number without its unit.

# IC50 lookup, item Nc1ncnc2c1c(-c1ccc(Oc3ccccc3)cc1)nn2C[C@@H]1SSC[C@@H]1O
269

###

Target: CSK (Homo sapiens, UniProt P41240)
Sequence (P41240 whole entry): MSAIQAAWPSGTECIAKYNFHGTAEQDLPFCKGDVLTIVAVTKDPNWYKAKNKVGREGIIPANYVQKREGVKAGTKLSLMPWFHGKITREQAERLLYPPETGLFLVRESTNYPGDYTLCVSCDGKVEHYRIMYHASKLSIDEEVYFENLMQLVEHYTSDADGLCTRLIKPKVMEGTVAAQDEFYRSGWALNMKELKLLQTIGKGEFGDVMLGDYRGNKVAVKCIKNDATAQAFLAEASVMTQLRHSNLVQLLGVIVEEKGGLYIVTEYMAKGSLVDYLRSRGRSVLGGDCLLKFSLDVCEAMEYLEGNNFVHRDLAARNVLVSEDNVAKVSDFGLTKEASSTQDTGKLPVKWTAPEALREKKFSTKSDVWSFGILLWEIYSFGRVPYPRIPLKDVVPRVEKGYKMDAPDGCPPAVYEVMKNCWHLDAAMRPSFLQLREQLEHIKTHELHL
Test: KiNativ in situ kinase profiling in melanoma cell lysates
Type: binding
Design: we tested the endogenous kinome response to SAB298; host or cells: YUSIV and YUSIK melanoma cell lysates
Conditions: CSK in YUSIK lysate; 3-point dose response
MEASURE NAME: IC50 (nM)
Express your answer in nM, writing the number without its unit.

Enter reported IC50 observed with CSK (Homo sapiens, UniProt P41240) for Nc1ncnc2c1c(-c1ccc(Oc3ccccc3)cc1)nn2C[C@@H]1SSC[C@@H]1O
910
